Every entry's value here was drawn from PubChem BioAssay (NCI).

Listed here are compounds together with their documented TGI.
# Tested on: HOP-92 NSCLC
# PROCEDURE_DETAILS: NCI tumour cell line growth inhibition, 48 h
*1 amine or outer side, *2 acyl side, *3 side chain or, on linkers, in order; H or OH if unused. Where a SMILES comes first, the peptide text is derived from it. [ ]: non-standard residue; d: D form. The star is where a group is joined. X31 = CC(=O)N(C)SCC(N[*:1])C(=O)[*:2]; X47 = CC(=O)N(C)SCC(N*)/C(O)=N\O; Cbz = O=C(OCc1ccccc1)*; Bn = c1ccc(C*)cc1; For = O=C*
REPORTED_PROPERTY: TGI (µM)

[[record]]
compound = "CC(=N\\N)/C(C)=N/N=C(C)/C(C)=N/N=C(C)/C(C)=N/N=C(C)/C(C)=N/N"
test_target = "HOP-92 NSCLC"
limit_sign = ">"
result_number = 100

[[record]]
compound = "Nc1ccc2c(c1)C(=O)C(=O)c1c-2nc2ccccn12"
test_target = "HOP-92 NSCLC"
limit_sign = "="
result_number = 4.21

[[record]]
compound = "O=C1c2c(Cl)c(Cl)c(Cl)c(Cl)c2C(=O)N1CCN(c1c(Cl)ssc1=O)c1c(Cl)ssc1=O"
test_target = "HOP-92 NSCLC"
limit_sign = "="
result_number = 35.5

[[record]]
compound = "CC[C@]1(O)CC(OC2CC(N(C)C)C(O)C(C)O2)c2c(cc3c(c2O)C(=O)c2c(O)cccc2C3=O)[C@@H]1C(=O)OC (some centres not stated)"
test_target = "HOP-92 NSCLC"
limit_sign = "="
result_number = 1.51

[[record]]
compound = "CCOc1ccccc1NC(=O)CC1C(=O)Nc2ccccc2S1=O (configuration not stated)"
test_target = "HOP-92 NSCLC"
limit_sign = ">"
result_number = 100

[[record]]
compound = "NC(=O)NNCc1ccccc1"
test_target = "HOP-92 NSCLC"
limit_sign = ">"
result_number = 100

[[record]]
compound = "CC(C)(C)NNC(=O)/C(=C/c1ccc([N+](=O)[O-])cc1)NC(=O)c1ccccc1"
test_target = "HOP-92 NSCLC"
limit_sign = ">"
result_number = 100

[[record]]
compound = "C=CC[n+]1c(/C=C/C=C2\\N(C)c3ccccc3C2(C)C)sc2ccc(OC)cc21"
test_target = "HOP-92 NSCLC"
limit_sign = "="
result_number = 1.61

[[record]]
compound = "Cc1ccc2c3c1O[C@H]1c4[nH]c5ccccc5c4C[C@@]4(O)[C@@H](C2)N(C)CC[C@]314"
test_target = "HOP-92 NSCLC"
limit_sign = "="
result_number = 23.2

[[record]]
compound = "CC1=NCCN=C(C)C1N=Nc1ccc2nc(C)[nH]c2c1"
test_target = "HOP-92 NSCLC"
limit_sign = "="
result_number = 22.5

[[record]]
compound = "CC(=O)N(C)SCC(NC(=O)C(Cc1ccccc1)NC(=O)OCc1ccccc1)C(=O)NC(Cc1ccccc1)C(=O)NC(Cc1cn(C=O)c2ccccc12)C(=O)NC(CCCCNC(=O)OCc1ccccc1)C(=O)NC(C(=O)NC(CSN(C)C(C)=O)/C(O)=N\\O)C(C)OCc1ccccc1 (configuration not stated) (Cbz-F[X31]FW(For)K(Cbz)T(Bn)-X47; configuration not given here)"
test_target = "HOP-92 NSCLC"
limit_sign = ">"
result_number = 100

[[record]]
compound = "CCOC(=O)Nc1cc2nnc(-c3ccccc3)nc2c(N)n1"
test_target = "HOP-92 NSCLC"
limit_sign = "="
result_number = 85.2

[[record]]
compound = "COC(=O)CCc1cc(OC)c(O)c(C(Cc2ccc(OC)c(OC)c2)C(=O)OC)c1 (configuration not stated)"
test_target = "HOP-92 NSCLC"
limit_sign = ">"
result_number = 100

[[record]]
compound = "O=C(/C=C1\\N=C(c2ccccc2)N(c2nc3ccc(Sc4ccccc4)cc3[nH]2)C1=O)/C=C/c1ccccc1"
test_target = "HOP-92 NSCLC"
limit_sign = ">"
result_number = 100

[[record]]
compound = "COc1cc2c(cc1O)CC[C@@H]1[C@@H]2CC[C@]2(C)[C@@H](NCCN(C)C)CC[C@@H]12"
test_target = "HOP-92 NSCLC"
limit_sign = "="
result_number = 0.742

[[record]]
compound = "CC1(C)[C@H](C(=O)O)N2C(=O)[C@@H](NS(=O)(=O)c3ccc([N+](=O)[O-])cc3)[C@H]2S1(=O)=O"
test_target = "HOP-92 NSCLC"
limit_sign = ">"
result_number = 100

[[record]]
compound = "Nc1ccc(S(=O)(=O)Nc2nnc(S(N)(=O)=O)s2)cc1"
test_target = "HOP-92 NSCLC"
limit_sign = ">"
result_number = 100

